# TESTED SYSTEM: UniProtKB O14965
# PROCEDURE TEXT: Inhibition of Aurora A kinase at 10 uM
# if value of inhibition reaches 8%, tag MET; if it stays below, tag NOT MET

Some solved entries appear below for comparison.
O=C1c2[nH]c3cc(-c4ccco4)nn3c(=O)c2CN1Cc1ccc2c(c1)OCO2    MET
COc1ccccc1CN1Cc2c([nH]c3cc(-c4ccco4)nn3c2=O)C1=O    MET
O=C1c2[nH]c3cc(-c4ccco4)nn3c(=O)c2CN1Cc1cccc2ccccc12    MET
O=C1c2[nH]c3cc(-c4ccco4)nn3c(=O)c2CN1CCN1CCOCC1    NOT MET

Ask: Does the reported inhibition for O=C1c2c(c(=O)n3nc(-c4ccco4)cc3n2CCN2CCOCC2)CN1Cc1ccccc1 fall at or above the 8% mark?
Result: NOT MET

Ask: Does the reported inhibition for O=C1c2[nH]c3cc(-c4ccco4)nn3c(=O)c2CN1CCCc1ccccc1 fall at or above the 8% mark?
Result: MET

Ask: Does the reported inhibition for O=C1c2[nH]c3cc(-c4ccco4)nn3c(=O)c2CN1c1ccccc1 fall at or above the 8% mark?
Result: NOT MET

Ask: Does the reported inhibition for COc1cccc(CN2Cc3c([nH]c4cc(-c5ccco5)nn4c3=O)C2=O)c1 fall at or above the 8% mark?
Result: MET

Ask: Does the reported inhibition for Cn1c2c(c(=O)n3nc(-c4ccco4)cc13)CN(Cc1ccccc1)C2=O fall at or above the 8% mark?
Result: NOT MET

----------
Target protein (sequence): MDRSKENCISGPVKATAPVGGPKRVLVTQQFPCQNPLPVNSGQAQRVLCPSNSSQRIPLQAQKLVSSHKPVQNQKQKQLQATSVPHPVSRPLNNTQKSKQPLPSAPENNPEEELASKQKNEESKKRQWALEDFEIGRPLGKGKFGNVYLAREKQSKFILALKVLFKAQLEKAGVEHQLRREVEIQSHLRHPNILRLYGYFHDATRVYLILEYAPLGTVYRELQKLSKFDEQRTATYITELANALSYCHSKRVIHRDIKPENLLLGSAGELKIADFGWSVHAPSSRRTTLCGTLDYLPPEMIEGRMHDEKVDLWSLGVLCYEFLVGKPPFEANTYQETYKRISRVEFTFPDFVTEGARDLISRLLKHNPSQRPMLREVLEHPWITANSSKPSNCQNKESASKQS
QUANTITY: pIC50
Give only the number. pIC50 is defined as minus log10 of concentration in molar units.

COc1ccc(CN2Cc3c([nH]c4cc(-c5ccco5)nn4c3=O)C2=O)cc1    5.10
CC(=O)Nc1cccc(CN2Cc3c([nH]c4cc(-c5ccco5)nn4c3=O)C2=O)c1    4.74

API: the following record is the query input.
Ask: // query pIC50 value for entry COc1ccccc1CN1Cc2c([nH]c3cc(-c4ccco4)nn3c2=O)C1=O
Result: 5.25

----------
# TESTED SYSTEM: Aurora kinase A (Homo sapiens)
# PROCEDURE TEXT: Inhibition of Aurora A kinase at 50 uM
QUANTITY: inhibition

O=C1c2nc3cc(-c4ccco4)nn3c(O)c2CN1Cc1ccccc1    90.2%

Ask: // query inhibition value for entry COc1cccc(CN2Cc3c([nH]c4cc(-c5ccco5)nn4c3=O)C2=O)c1
Result: 90%

Ask: // query inhibition value for entry COc1ccc(CN2Cc3c([nH]c4cc(-c5ccco5)nn4c3=O)C2=O)cc1
Result: 88.2%

Ask: // query inhibition value for entry CC(=O)Nc1cccc(CN2Cc3c([nH]c4cc(-c5ccco5)nn4c3=O)C2=O)c1
Result: 87.8%
